- Experimental System: human LAG3 expressed on cells (human) (UniProt P18627)
- Sequence (P18627 23-525): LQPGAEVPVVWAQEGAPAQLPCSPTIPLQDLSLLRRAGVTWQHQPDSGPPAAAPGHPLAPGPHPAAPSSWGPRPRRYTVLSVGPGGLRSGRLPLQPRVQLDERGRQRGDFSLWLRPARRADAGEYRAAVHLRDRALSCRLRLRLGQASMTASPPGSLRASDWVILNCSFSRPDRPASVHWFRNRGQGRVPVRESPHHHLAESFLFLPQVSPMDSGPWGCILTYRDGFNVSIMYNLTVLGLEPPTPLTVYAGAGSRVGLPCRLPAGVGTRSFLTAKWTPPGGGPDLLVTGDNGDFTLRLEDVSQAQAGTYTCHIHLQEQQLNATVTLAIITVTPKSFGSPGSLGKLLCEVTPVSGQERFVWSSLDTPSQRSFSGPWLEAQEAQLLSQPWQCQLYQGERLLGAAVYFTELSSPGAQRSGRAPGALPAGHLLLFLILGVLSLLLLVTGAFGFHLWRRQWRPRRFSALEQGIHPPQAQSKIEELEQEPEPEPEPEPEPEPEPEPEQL
- Run Description: cell-based or functional assay
Readout Label: IL-2, % of BMS, at 0.24691358 ug/mL (%)
Give the quantity in %, number only.

Exam item: IL-2, % of BMS, at 0.24691358 ug/mL for sdAb fusion 25-27-2 (Fc fusion, not shown: a dimerising Fc or GST) QLQLVESGGGLVQAGGSLRLSCAASGSIESFSFMGWYRQAPGKQRELVAGFTGAASLSFSTYTDAVKGRFTISRDNAKNTVYLQMNSLKPEDTAVYFCNVDPWSQSWPGRYWGQGTQVTVSSGGGGSGGGGSQVQLVESGGGLVQPGGSLRLSCAASGFTLDYYAIGWFRQAPGKEREGVSCIRSSDGSTYYADSVKGRFTISSDNTKNTVYLQMNSLKPEDTAVYYCATDRYSDCRGPYENWGQGTQVTVSSEPKSCDKTHTCPPCPAPELLG ?
Marked response: 17.2
